- Tested on: Staphylococcus aureus
- assay-method-text: Bactericidal activity against Staphylococcus aureus ATCC 6538 after 72 hrs by serial subcultivation method
- Assay type: functional
- experimental-setup: ATCC 6538, 72 h
result-type: MBC (µM)

• O=C1N/C(=N\c2nccs2)S/C1=C\c1ccc(Br)cc1 = 27.3
• O=C1N/C(=N\c2nccs2)S/C1=C\c1ccc(F)cc1 = 65.4
• O=C1N/C(=N\c2nccs2)S/C1=C\c1c(Cl)cccc1Cl = 56.2
• CN[C@@H]1[C@H](O[C@H]2[C@H](O[C@H]3[C@H](O)[C@@H](O)[C@H](N=C(N)N)[C@@H](O)[C@@H]3N=C(N)N)O[C@@H](C)[C@]2(O)C=O)O[C@@H](CO)[C@H](O)[C@H]1O = 344
• COc1ccccc1/C=C1\S/C(=N/c2nccs2)NC1=O = 63
• O=C1N/C(=N\c2nccs2)S/C1=C\c1cccc(Br)c1 = 14.4
• Cc1csc(/N=C2\NC(=O)/C(=C/c3ccccc3Cl)S2)n1 = 119
• CC1(C)S[C@@H]2[C@H](NC(=O)[C@H](N)c3ccccc3)C(=O)N2[C@H]1C(=O)O = 372
• Cc1ccc(/C=C2\S/C(=N/c3nccs3)NC2=O)cc1 = 33
• O=C1N/C(=N\c2nccs2)S/C1=C\c1ccc(Cl)cc1Cl = 70.2
• Cc1csc(/N=C2\NC(=O)/C(=C/c3ccc(Cl)cc3)S2)n1 = 240
• O=C1N/C(=N\c2nc(-c3ccccc3)cs2)S/C1=C\c1ccc(Cl)cc1 = 100
• O=C1N/C(=N\c2nc(-c3ccccc3)cs2)S/C1=C\c1ccccc1Cl = 100
• O=C1N/C(=N\c2nccs2)S/C1=C\c1cc(Br)ccc1O = 68
• O=C1N/C(=N\c2nc(-c3ccccc3)cs2)S/C1=C\c1ccccc1 = 108
• O=C1N/C(=N\c2nccs2)S/C1=C\c1cccc(F)c1 = 65.4

Entry source: ChEMBL document CHEMBL2311431
